Target: T1, SARS-CoV-2 spike protein (nCoV-S Spike Protein Trimer, NIH) (SARS-CoV-2, UniProt P0DTC2 14-1208)
T1 construct: also called S protein
Test: HT-SPR (Carterra LSA), mAb on chip, SARS-CoV-2 spike protein titrated, 25 C
Measurement label: pKd
The value called pKd is obtained by taking minus log10 of the concentration in mol/L.

Prompt line: Dear colleague, I am looking for the recorded pKd of the following binder: antibody 414 (antibody, V domains shown) VH: QVQLVQSGAEVKKPGASVKVSCKASGYTFTSYYMHWVRQAPGQGLEWMGIINPSGGSTSYAQKFQGRVTMTRDTSTSTVYMELSSLRSEDTAVYYCARDPPGRDFWSGYYFGAPDYYYYYGMDVWGQGTTVTVSS VL: DIQMTQSPSSLSASVGDRVTITCRASQGISNYLAWFQQKPGKAPKSLIYAASSLQSGVPSKFSGSGSGTDFTLTISSLQPEDFATYYCQQYNSYPYTFGQGTKLEIKR
Response line: 8.10

Prompt line: Now give it for antibody 562 (antibody, V domains shown) VH: QVQLVESGGGVVQPGRSLRLSCAASGFTFSSYAMHWVRQAPGKGLEWVAVISYDGSNKYYADSVKGRFTISRDNSKNTLYLQMNSLRAEDTAVYYCARASSGGYQGPFDPWGQGTLVTVSS VL: QSALTQPASVSGSPGQSITISCTGTSSDVGGYNYVSWYQQHPGKAPKLMIYDVSNRPSGVSNRFSGSKSGNTASLTISGLQAEDEADYYCSSYTSSSTLLYVFGTGTKVTVLG too.
Response line: 9.76

Prompt line: Now give it for antibody 494 (antibody, V domains shown) VH: EVQLVESGGGLVQPGGSLRLSCAASGFTVSSNYMSWVRQAPGKGLEWVSVIYSGGSTFYADSVKGRFTISRDNSKNTLYLQMNSLRAEDTAVYYCARDSGDQLLDYWGQGTLVTVSS VL: DIQLTQSPSFLSASVGDRVTITCRASQGISSYLAWYQQKPGKAPKLLIYAASTLQSGVPSRFSGSGSGTEFTLTISSLQPEDFATYYCQQLNSYPPFTFGPGTKVDIKR too.
Response line: 10.08
